Values were extracted from ChEMBL document CHEMBL1201862.

# Experimental System: Ataxin-2 (Homo sapiens) (UniProt Q99700)
# Sequence (Q99700 whole entry): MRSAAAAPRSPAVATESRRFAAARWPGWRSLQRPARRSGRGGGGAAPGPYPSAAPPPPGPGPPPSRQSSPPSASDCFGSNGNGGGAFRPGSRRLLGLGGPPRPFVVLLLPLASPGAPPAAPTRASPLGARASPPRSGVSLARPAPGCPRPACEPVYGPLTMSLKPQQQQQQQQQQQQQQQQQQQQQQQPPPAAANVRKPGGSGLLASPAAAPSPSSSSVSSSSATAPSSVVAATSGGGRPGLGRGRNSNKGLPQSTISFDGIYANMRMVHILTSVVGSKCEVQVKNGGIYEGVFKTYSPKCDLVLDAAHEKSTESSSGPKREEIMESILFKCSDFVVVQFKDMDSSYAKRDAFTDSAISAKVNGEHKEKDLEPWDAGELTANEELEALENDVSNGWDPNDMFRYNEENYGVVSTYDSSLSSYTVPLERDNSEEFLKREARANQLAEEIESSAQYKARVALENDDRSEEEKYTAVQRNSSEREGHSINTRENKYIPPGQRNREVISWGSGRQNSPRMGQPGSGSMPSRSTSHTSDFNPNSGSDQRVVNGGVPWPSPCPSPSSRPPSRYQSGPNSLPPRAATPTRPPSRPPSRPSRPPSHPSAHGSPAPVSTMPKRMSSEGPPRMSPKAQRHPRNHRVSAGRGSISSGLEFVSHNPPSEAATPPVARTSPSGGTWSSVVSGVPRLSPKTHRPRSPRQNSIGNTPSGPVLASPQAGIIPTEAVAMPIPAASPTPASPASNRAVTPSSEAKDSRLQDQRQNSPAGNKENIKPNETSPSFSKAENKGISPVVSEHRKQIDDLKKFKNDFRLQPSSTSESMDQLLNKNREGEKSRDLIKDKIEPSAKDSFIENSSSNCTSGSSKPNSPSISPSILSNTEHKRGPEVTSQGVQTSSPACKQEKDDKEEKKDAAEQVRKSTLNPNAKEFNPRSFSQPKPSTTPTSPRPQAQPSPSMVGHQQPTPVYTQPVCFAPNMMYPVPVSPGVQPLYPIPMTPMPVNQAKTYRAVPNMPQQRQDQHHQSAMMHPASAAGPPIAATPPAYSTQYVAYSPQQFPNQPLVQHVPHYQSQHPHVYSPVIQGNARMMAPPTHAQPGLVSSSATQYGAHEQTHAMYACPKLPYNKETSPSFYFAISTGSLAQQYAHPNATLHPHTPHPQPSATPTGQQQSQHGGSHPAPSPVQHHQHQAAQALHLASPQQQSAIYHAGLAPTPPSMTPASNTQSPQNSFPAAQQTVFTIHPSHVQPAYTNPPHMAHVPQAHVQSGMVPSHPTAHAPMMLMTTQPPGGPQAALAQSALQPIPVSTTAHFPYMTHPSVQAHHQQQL
# Test Summary: qHTS for Inhibitors of ATXN expression.
# Type: functional
Out of some 400,000 compounds screened, about 2,100 (0.53%) were called active. Roughly 14% stayed inconclusive and do not appear here. How the calls were made is not given here. Shown is part of a subset that was picked to be rich in actives.
The reply should be one of these categories: YES = active, NO = inactive

Here are 2 compounds together with their reported answers.
Answer briefly: the call reported for CCOc1ccc(C(CC(=O)O)NC(=O)C(c2ccccc2)c2ccccc2)cc1OC (stereo not drawn) in this assay.
NO

Answer briefly: the call reported for N#Cc1c(N)n(CCNC(=O)c2ccccc2)c2nc3ccccc3nc12 in this assay.
NO

New cases:
Answer briefly: the call reported for CCCc1sc(N/N=C/c2ccccn2)nc1-c1ccc(Br)cc1 in this assay.
YES

Answer briefly: the call reported for c1ccc(CNc2ncnc3sc4c(c23)CCCC4)nc1 in this assay.
NO

Answer briefly: the call reported for CCN(CC)C(=O)COc1ccc(/C=C(\C#N)S(=O)(=O)c2ccccc2)cc1OC in this assay.
NO

Answer briefly: the call reported for Cn1/c(=N/N=C/c2ccccn2)sc2ccccc21 in this assay.
NO

Answer briefly: the call reported for CCOC(=O)c1sc2nc(-c3cccnc3)ccc2c1N in this assay.
NO

Answer briefly: the call reported for O=C(c1ccccn1)N(c1ccccc1)C1(C(=O)NC2CCCCC2)CCCCC1 in this assay.
NO

Answer briefly: the call reported for COc1ccccc1-n1nnnc1S(=O)(=O)Cc1ccc(Cl)cc1 in this assay.
YES

Answer briefly: the call reported for N#C/C(=C(/O)COC(=O)CCCNC(=O)c1ccc(Cl)cc1)c1nc2ccccc2[nH]1 in this assay.
YES

Answer briefly: the call reported for CCC/C=N/Nc1nc2ccccc2s1 in this assay.
NO

Answer briefly: the call reported for CCOC(=O)c1sc2nc(C)cc(-c3ccccc3)c2c1N in this assay.
NO

Answer briefly: the call reported for COc1ccc2cc(-c3nc(Cl)c4c5c(sc4n3)CCCC5)c(=O)oc2c1 in this assay.
NO

Answer briefly: the call reported for N#Cc1ccccc1S(=O)(=O)N1CCN(C(=O)CCC2CCCC2)CC1 in this assay.
NO

Answer briefly: the call reported for Cc1csc(N/N=C/c2ccccn2)n1 in this assay.
YES

Answer briefly: the call reported for CCOC(=O)c1cccc(Nc2nc(C(=O)OCC)nc3ccccc23)c1 in this assay.
YES

###

# Experimental System: Ataxin-2 (Homo sapiens)
# Test Summary: qHTS for Inhibitors of ATXN expression.
# Format: functional
About 2,100 (0.53%) of roughly 400,000 compounds were called active. About 14% were inconclusive and are not listed. No rule for the calls is given here. The sample holds actives, similar compounds and a random draw of the others, so the mix is not that of the screen.
The reply should be one of these categories: active, inactive

Here are 10 compounds together with their reported answers.
Answer briefly: the call reported for Cc1ccc(CSc2nc3ccccc3c(=O)n2C)cc1 in this assay.
inactive

Answer briefly: the call reported for CC(C)(C)c1cc2ncnc(N3CCCCC3)c2s1 in this assay.
inactive

Answer briefly: the call reported for CCCCCc1c(-c2ccc(OC)cc2)ncn1CCc1ccccc1OC in this assay.
active

Answer briefly: the call reported for CCOc1ccc(-c2c(=O)n(OCc3nc4ccccc4[nH]3)c3ccccc3[n+]2[O-])cc1 in this assay.
inactive

Answer briefly: the call reported for O=C(COC(=O)/C=C/C(=O)OCC(=O)NC12CC3CC(CC(C3)C1)C2)NC12CC3CC(CC(C3)C1)C2 in this assay.
active

Answer briefly: the call reported for CC(=O)NCCc1nc2cc(NC(=O)c3cccs3)ccc2n1C in this assay.
inactive

Answer briefly: the call reported for O=C(NC(=S)NCc1ccco1)c1ccc(Br)cc1 in this assay.
inactive

Answer briefly: the call reported for O=C(C1CCCO1)N(c1ccc(F)cc1)C1C=CS(=O)(=O)C1 (stereo not drawn) in this assay.
inactive

Answer briefly: the call reported for CCc1nnc(NC(=O)CSc2nc3c(cc2C#N)CCC3)s1 in this assay.
inactive

Answer briefly: the call reported for CC(=O)Oc1ccc2c(c1)O/C(=C\c1ccncc1)C2=O in this assay.
inactive

New cases:
Answer briefly: the call reported for Cc1ccc(S(=O)(=O)c2cc3c(=O)n4ccccc4nc3n(Cc3ccco3)c2=N)cc1 in this assay.
inactive

Answer briefly: the call reported for CCCCC(=O)Nc1nn(CC)c2nc3c(C)cccc3cc12 in this assay.
inactive
